Measured Target: T1, cTnI quality control product recombinant protein (human, UniProt P19429 2-210, limits assumed)
T1 construct: treated as the same molecule; also called cTnI antigen; cardiac troponin I
T1 sequence (P19429 2-210 limits assumed): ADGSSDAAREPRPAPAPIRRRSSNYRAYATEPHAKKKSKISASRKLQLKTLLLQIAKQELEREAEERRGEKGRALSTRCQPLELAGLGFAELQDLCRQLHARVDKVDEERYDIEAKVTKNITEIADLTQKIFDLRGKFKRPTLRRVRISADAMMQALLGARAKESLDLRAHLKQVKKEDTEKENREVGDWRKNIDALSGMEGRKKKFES
Test Name: AMC sensor, antibody immobilised, cTnI in solution
Measurement Label: kon (M⁻¹ s⁻¹)
Expressed in M⁻¹ s⁻¹, but write only the number.

Worked cases, answers included:
Binder	Measurement Label	Readout Value
Mutation 1-29 (antibody, V domains shown, Built as m8) VH: EVQLQQSGPELVKPGASVKMSCKASGYTFTLYVIHWVKQKPGQGLEWIGYIQPYIDGTKYNEKFKGKATLTVDKSSSTAFMELSSLTSEDSAVYYCARSGYGGYGLAWLAYWGQGTLVTVSA VL: QAVVIQESALTTSPGETVTLTCRSSTGAATTSQYANWVQEKPDHLFTGLIGGSQNRAPGVPARFSGSLIGDKAALTITGAQTEDEAIYFCALVYSNNWVFGGGTKLTVLG	kon	54500
Mutation 1-17 (antibody, V domains shown, Built as m8) VH: EVQLQQSGPELVKPGASVKMSCKASGYTFTLYVIHWVKQKPGQGLEWIGYINPYLDGTKYNEKFKGKATLTVDKSSSTAFMELSSLTSEDSAVYYCARSGYGGYGLAWLAYWGQGTLVTVSA VL: QAVVIQESALTTSPGETVTLTCRSSTGAATTSNYANWVQEKPDHLFTGLIGGSQNRAPGVPARFSGSLIGDKAALTITGAQTEDEAIYFCALVYSNQWVFGGGTKLTVLG	kon	32100

Now for a further binder.
input: Any idea what its kon is? The binder is Mutation 1-16 (antibody, V domains shown, Built as m8) VH: EVQLQQSGPELVKPGASVKMSCKASGYTFTLYVLHWVKQKPGQGLEWIGYINPYLDGTKYNEKFKGKATLTVDKSSSTAFMELSSLTSEDSAVYYCARSGYGNYGLAWLAYWGQGTLVTVSA VL: QAVVIQESALTTSPGETVTLTCRSSTGAATTSQYANWVQEKPDHLFTGLIGGSNNRAPGVPARFSGSLIGDKAALTITGAQTEDEAIYFCALVYSNHWVFGGGTKLTVLG
output: 34300

Where do these numbers come from? They come from patent US20220033484A1.
